target: sGC α1/β1 heterodimer (Homo sapiens (Human), UniProt Q02108+Q02153); experiment: Cell-based sGC functional assay (cyclic GMP assay for sGC activator: CASA assay); settings: inflection point, 4P fit; CHO-K1/sGC cells; read-out: IP
Sequence (Q02108 whole entry): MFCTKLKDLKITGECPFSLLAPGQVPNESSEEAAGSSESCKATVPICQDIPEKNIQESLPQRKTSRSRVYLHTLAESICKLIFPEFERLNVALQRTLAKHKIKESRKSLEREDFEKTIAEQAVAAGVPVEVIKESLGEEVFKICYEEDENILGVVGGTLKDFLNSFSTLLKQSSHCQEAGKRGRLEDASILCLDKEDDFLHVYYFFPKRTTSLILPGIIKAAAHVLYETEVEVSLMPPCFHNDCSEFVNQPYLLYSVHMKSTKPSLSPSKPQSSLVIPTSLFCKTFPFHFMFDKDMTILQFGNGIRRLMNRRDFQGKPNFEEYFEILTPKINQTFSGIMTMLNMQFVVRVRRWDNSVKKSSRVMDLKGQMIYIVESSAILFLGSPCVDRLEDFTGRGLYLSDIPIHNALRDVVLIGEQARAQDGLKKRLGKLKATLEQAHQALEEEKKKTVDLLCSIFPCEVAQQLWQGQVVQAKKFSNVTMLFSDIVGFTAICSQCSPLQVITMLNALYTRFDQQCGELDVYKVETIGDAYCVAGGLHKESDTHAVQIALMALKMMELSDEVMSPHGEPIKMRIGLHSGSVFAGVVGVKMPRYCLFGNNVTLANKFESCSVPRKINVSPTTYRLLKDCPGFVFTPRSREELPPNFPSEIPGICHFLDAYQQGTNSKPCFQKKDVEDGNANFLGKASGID
Sequence (Q02153 whole entry): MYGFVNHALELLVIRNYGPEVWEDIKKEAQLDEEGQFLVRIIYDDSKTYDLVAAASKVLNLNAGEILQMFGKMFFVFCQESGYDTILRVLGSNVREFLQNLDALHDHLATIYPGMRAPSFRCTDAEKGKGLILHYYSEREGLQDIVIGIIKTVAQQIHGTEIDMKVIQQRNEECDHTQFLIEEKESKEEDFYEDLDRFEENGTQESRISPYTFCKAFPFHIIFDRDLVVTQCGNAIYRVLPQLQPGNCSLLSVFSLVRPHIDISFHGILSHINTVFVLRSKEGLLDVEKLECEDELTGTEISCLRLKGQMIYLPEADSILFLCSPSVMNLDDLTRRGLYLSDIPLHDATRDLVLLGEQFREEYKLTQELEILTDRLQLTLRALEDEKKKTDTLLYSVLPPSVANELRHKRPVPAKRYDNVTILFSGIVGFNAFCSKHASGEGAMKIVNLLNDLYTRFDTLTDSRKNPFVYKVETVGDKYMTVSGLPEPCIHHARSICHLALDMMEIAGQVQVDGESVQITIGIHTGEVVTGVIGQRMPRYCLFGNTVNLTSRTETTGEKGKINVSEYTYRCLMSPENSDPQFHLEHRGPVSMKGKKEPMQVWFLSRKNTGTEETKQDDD
quantityName: EC50 (µM)

The following compounds have reported results that may help.
[
  {
    "compound": "CC(C)(Cc1ccc(C2(C)C(=O)Nc3nc(-c4nn(CCC(F)(F)C(F)(F)F)c5ncccc45)nc(N)c32)cc1)C(=O)O (stereo not shown) [Example 9B]",
    "scaleUnit": "µM",
    "EC50": 1.37
  },
  {
    "compound": "CC(C)(Cc1nc(C2(C)C(=O)Nc3nc(-c4nn(Cc5ccccc5F)c5cc(Cl)ccc45)nc(N)c32)cs1)C(=O)O (stereo not shown) [Example 142B]",
    "scaleUnit": "µM",
    "EC50": 0.264
  },
  {
    "compound": "CCCCn1nc(-c2nc(N)c3c(n2)NC(=O)C3(C)c2cn(CC(=O)O)nn2)c2ccc(Cl)cc21 (stereo not shown) [Example 35B]",
    "scaleUnit": "µM",
    "EC50": 2.79
  }
]

1 = CC(C)(Cc1nc(C2(C)C(=O)Nc3nc(-c4nn(Cc5ccccc5F)c5cc(Cl)ccc45)nc(N)c32)co1)C(=O)O (stereo not shown) [Example 128A]
2 = CC(C)(C)CCn1nc(-c2nc(N)c3c(n2)NC(=O)C3(C)c2nc(CC(C)(C)C(=O)O)co2)c2ccc(Cl)cc21 (stereo not shown) [Example 208A]
3 = CC1(c2cccc(C(=O)O)c2)C(=O)Nc2nc(-c3nn(CCC(F)(F)C(F)(F)F)c4cc(Cl)ccc34)nc(N)c21 (stereo not shown) [Example 26B]
4 = C[C@@]1(c2ccc(CCC(=O)O)cc2)C(=O)Nc2nc(-c3nn(Cc4ccccc4F)c4ccc(Cl)cc34)nc(N)c21 [Example 73B]
Problem: Sort ascending by EC50. A complete answer lists every label in the requested sequence.
Solution: 4, 1, 2, 3

P = CC(C)(Cc1coc(C2(C)C(=O)Nc3nc(-c4nn(Cc5ccccc5F)c5ccccc45)nc(N)c32)n1)C(=O)O (stereo not shown) [Example 56A]
Q = Cc1cccc(Cn2nc(-c3nc(N)c4c(n3)NC(=O)[C@@]4(C)c3ccc(CCC(=O)O)cc3)c3ccccc32)c1 [Example 225B]
Problem: Given the entries P and Q , determine which has the lower reported EC50. Reply with the label of the item you choose.
Solution: P
(P: 0.134 µM, Q: 0.46 µM)

A = CCCCCn1nc(-c2nc(N)c3c(n2)NC(=O)[C@@]3(C)c2ccc(CCC(=O)O)cc2)c2ccc(Cl)cc21 [Example 43B]
B = CC(C)(Cc1cccc(C2(C)C(=O)Nc3nc(-c4nn(CCC(F)(F)C(F)(F)F)c5ncccc45)nc(N)c32)c1)C(=O)O (stereo not shown) [Example 11B]
Problem: Sorting by EC50 in descending order, would A or B appear first? Reply with the label of the item you choose.
Solution: B

1 = CC1CCC(Cn2nc(-c3nc(N)c4c(n3)NC(=O)C4(C)c3nc(CC(C)(C)C(=O)O)co3)c3ccccc32)CC1 (single isomer, unassigned) [Example 231AB]
2 = CC1(c2cccc(C(=O)O)c2)C(=O)Nc2nc(-c3nn(Cc4ccccc4F)c4cc(F)ccc34)nc(N)c21 (stereo not shown) [Example 191B]
3 = CC(C)(NC(=O)CCc1ccc([C@]2(C)C(=O)Nc3nc(-c4nn(Cc5ccccc5F)c5ncccc45)nc(N)c32)cc1)C(=O)O [Example 101B]
4 = CC1(c2ccc(CCC(=O)O)cn2)C(=O)Nc2nc(-c3nn(Cc4ccccc4F)c4cc(Cl)ccc34)nc(N)c21 (stereo not shown) [Example 129A]
5 = C[C@@]1(c2ccc(CCC(=O)O)cc2)C(=O)Nc2nc(-c3nn(Cc4ccccc4F)c4cc(Cl)ccc34)nc(N)c21 [Example 47B]
Problem: Sort ascending by EC50. A complete answer lists every label in the requested sequence.
Solution: 4, 2, 5, 1, 3

I = CC1CCC(Cn2nc(-c3nc(N)c4c(n3)NC(=O)C4(C)c3nc(CC(C)(C)C(=O)O)co3)c3ccc(Cl)cc32)CC1 (single isomer, unassigned) [Example 132AA]
II = CC(C)(Cc1coc(C2(C)C(=O)Nc3nc(-c4nn(Cc5ccccc5F)c5ccc(Cl)cc45)nc(N)c32)n1)C(=O)O (stereo not shown) [Example 74A]
Problem: Given the entries I and II , determine which has the lower reported EC50. Reply with the label of the item you choose.
Solution: II

1 = CC1(c2cccc(-c3nn[nH]n3)c2)C(=O)Nc2nc(-c3nn(CCC(F)(F)C(F)(F)F)c4ncccc34)nc(N)c21 (single isomer, unassigned) [Example 252B]
2 = C[C@@]1(c2ccc(CCC(=O)O)cc2)C(=O)Nc2nc(-c3nn(Cc4c(F)cccc4F)c4cc(Cl)ccc34)nc(N)c21 (single isomer, unassigned) [Example 64B]
Problem: Given the entries 1 and 2 , determine which has the lower reported EC50. Reply with the label of the item you choose.
Solution: 2

1 = CC1(c2cn(CCC(=O)O)nn2)C(=O)Nc2nc(-c3nn(CCC(F)(F)C(F)(F)F)c4ncccc34)nc(N)c21 (stereo not shown) [Example 12B]
2 = CCCCn1nc(-c2nc(N)c3c(n2)NC(=O)[C@@]3(C)c2ccc(CCC(=O)O)cc2)c2ccc(C)nc21 [Example 111B]
Problem: Given the entries 1 and 2 , determine which has the lower reported EC50. Reply with the label of the item you choose.
Solution: 1

P = CC1(c2nc3cc(C(=O)O)ccc3s2)C(=O)Nc2nc(-c3nn(Cc4ccccc4F)c4cc(Cl)ccc34)nc(N)c21 (stereo not shown) [Example 130A]
Q = Cc1ccc2c(-c3nc(N)c4c(n3)NC(=O)[C@@]4(C)c3ccc(CCC(=O)O)cc3)nn(Cc3ccc(C)c(F)c3F)c2n1 [Example 25B]
Problem: Given the entries P and Q , determine which has the lower reported EC50. Reply with the label of the item you choose.
Solution: Q
(Q: 0.201 µM, P: 1.23 µM)
